# Lookup of reported melting point keyed by entry

{"smi": "COc1cc2ncnc(Nc3ccc(C)cc3)c2cc1OC.Cl", "melting point": "227 to 229 °C"}
{"smi": "COc1cc2ncnc(Nc3ccc(I)cc3)c2cc1OC.Cl", "melting point": "266 to 269 °C"}
{"smi": "COc1cc2ncnc(Nc3ccc(C(C)=O)cc3)c2cc1OC.Cl", "melting point": "218 to 220 °C"}
{"smi": "COc1cc2ncnc(Nc3cccc(C(C)=O)c3)c2cc1OC.Cl", "melting point": "219 to 221 °C"}

Data credit: patent US8513267B2
